The measured values listed here are drawn from patent US20250361322A1.

TARGET OR SYSTEM: Relipidated TF (UniProt P13726 33-295, limits assumed)
ASSAY DETAILS: cell-based or functional assay
RECORDED METRIC: % Peak IIa, Ab conc. 10 nM (%)
Give the number; % is assumed, so skip it.

BINDER: 43B1 (antibody, IgG1, V domains shown) VH: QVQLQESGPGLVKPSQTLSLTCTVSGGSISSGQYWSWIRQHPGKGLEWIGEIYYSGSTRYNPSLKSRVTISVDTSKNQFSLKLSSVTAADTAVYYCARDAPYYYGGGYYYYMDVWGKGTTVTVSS VL: EIVLTQSPGTLSLSPGERATLSCRASESVDSSYLAWYQQKPGQAPRLLIYGASTRQTGIPDRFSGSGSGTDFTLTISRLEPEDFAVYYCQQAGVVPYTFGGGTKVEIK
VALUE MEASURED: 89
//
BINDER: 39A (antibody, IgG1, V domains shown) VH: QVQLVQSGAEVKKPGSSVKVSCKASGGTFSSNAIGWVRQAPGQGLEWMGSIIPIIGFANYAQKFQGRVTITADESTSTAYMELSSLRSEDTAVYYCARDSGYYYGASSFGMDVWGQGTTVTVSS VL: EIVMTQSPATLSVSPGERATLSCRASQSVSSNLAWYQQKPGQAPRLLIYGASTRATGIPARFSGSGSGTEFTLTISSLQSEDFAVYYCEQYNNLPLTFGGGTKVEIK
VALUE MEASURED: 37
//
BINDER: TF-011 (antibody, V domains shown) VH: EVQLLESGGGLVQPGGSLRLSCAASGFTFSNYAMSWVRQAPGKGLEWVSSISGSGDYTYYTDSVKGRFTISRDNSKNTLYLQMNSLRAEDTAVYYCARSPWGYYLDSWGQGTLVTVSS VL: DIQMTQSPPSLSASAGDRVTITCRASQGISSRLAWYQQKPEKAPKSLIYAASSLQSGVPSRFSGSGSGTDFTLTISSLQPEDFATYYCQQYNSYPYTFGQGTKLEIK
VALUE MEASURED: 47

Now consider the entry below.
Given the binder 5G9 (humanized TF8-5G9, CNTO 860) (antibody, V domains shown) VH: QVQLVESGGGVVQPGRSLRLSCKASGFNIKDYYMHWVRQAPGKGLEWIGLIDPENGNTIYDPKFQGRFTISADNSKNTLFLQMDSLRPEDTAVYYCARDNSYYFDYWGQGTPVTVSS VL: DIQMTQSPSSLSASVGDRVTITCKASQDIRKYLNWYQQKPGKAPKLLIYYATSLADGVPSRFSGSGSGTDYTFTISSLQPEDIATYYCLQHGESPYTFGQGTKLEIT , what is its reported % Peak IIa, Ab conc. 10 nM?
24
